Target: CDK2/Cyclin E (Homo sapiens)
Assay: CDK2/Cyclin E enzymatic phosphorylation assay (Caliper mobility shift); note: 1.0 mM ATP or ATP Km
Conditions: read-out: Enzyme CDK2/cyclin E IC50
Description: Reactions proceeded until between 10% to 20% total peptides were phosphorylated at room temperature (25° C.) and were terminated with 35 mM 2,2′,2″,2′″-(ethane-1,2-diyldinitrilo)tetraacetic acid (EDTA). Product was detected using the Caliper mobility shift detection method where the phosphorylated peptide (product) and substrate were electrophoretically separated and measured. Percent activity was plotted against log concentration of compound and points to generate an apparent IC50.
assay endpoint: IC50 (nM)

Sample answers from the record:
# compound, observed
records = [
    ("Cc1nc2cnn(Cc3cccnc3)c2nc1Nc1cc(C(C)C)[nH]n1 [Example 18]", 15.1),
    ("CC(=O)N1CCC[C@H](n2ncc3ncc(Nc4cc(C(C)C)[nH]n4)nc32)C1 [Example 59]", 14.8),
]

(a) Cc1cc(Nc2cnc3cnn([C@H]4CC[C@H](O)CC4)c3n2)n[nH]1 [Example 39]
(b) C[C@H](c1cc(Nc2cnc3cnn(CC4CCOCC4)c3n2)n[nH]1)C(F)F (single isomer, unassigned) [Example 20]
Task item: Identify the entry with the larger IC50. Options: a and b Indicate which entry you chose by stating its label.
Reply: a
(a: 90 nM, b: 7.4 nM)

(1) CC(C)c1cc(Nc2cnc3cnn(C[C@H](C)CO)c3n2)n[nH]1 [Example 61]
(2) Cc1cc(Nc2cnc3cnn(C[C@H]4CCCOC4)c3n2)n[nH]1 [Example 5]
(3) Cc1cc(Nc2cnc3cnn([C@@H](C)c4cc(F)ccn4)c3n2)n[nH]1 (single isomer, unassigned) [Example 19]
(4) Cc1nn(CC2CCOCC2)c2nc(Nc3cc(C4COC4)[nH]n3)cnc12 [Example 8]
Task item: Ascending sort, IC50. List the labels according to the requested ordering.
Reply: 3, 1, 4, 2
(3: 4.5 nM, 1: 13.2 nM, 4: 37.1 nM, 2: 57.6 nM)

(I) Cc1cc(Nc2cnc3cnn([C@@H](C)c4cccnc4)c3n2)n[nH]1 [Example 15]
(II) COc1ncccc1[C@H](C)n1ncc2ncc(Nc3cc(C)[nH]n3)nc21 [Example 23]
(III) CC(C)c1cc(Nc2cnc3cnn(CC4CCOCC4)c3n2)n[nH]1 [Example 30]
(IV) C[C@@H](c1cccnc1Cl)n1ncc2ncc(Nc3cc(C#N)[nH]n3)nc21 [Example 24]
(V) C[C@@H](c1ccc(F)cc1)n1ncc2ncc(Nc3cc(C4COC4)[nH]n3)nc21 [Example 53]
Task item: Ascending sort, IC50. List the labels according to the requested ordering.
Reply: III, V, II, IV, I

(I) Cc1nc2cnn(CC3CCOCC3)c2nc1Nc1cc(C(C)C)[nH]n1 [Example 17]
(II) CC[C@H]([C@H](C)O)n1ncc2ncc(Nc3cc(C(C)C)[nH]n3)nc21 (single isomer, unassigned) [Example 14]
(III) CC(C)c1cc(Nc2cnc3cnn(C[C@@H]4CCCOC4)c3n2)n[nH]1 (single isomer, unassigned) [Example 10]
Task item: Ascending sort, IC50. List the labels according to the requested ordering.
Reply: III, I, II
